Target: T1, deamidase polypeptide from Chryseobacterium sp-62563 (deamidase domain of the pro-form SEQ ID NO: 5) (Chryseobacterium sp-62563)
T1 chain: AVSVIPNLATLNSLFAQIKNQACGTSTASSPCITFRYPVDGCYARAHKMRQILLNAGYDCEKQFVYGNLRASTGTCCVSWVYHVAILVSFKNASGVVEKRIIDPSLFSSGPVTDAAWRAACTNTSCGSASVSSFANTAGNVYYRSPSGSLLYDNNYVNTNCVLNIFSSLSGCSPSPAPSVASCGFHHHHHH
Experiment: cell-based or functional assay
Provide the recorded NanoDSF thermal unfolding temperature for the entries that follow.
Write down the numeric answer in °C and omit the unit.

Q: # input binder: variant deamidase propeptide F99A of Chryseobacterium sp-62563 (SEQ ID NO: 2) (other) NQDPNLVAKESNETAMKDFGKTVPVGIEKEDGKFKISFMVTAQPYEIKDSKENAAYISMIKTAVENETPIHVFLKANTNEIAKVDKATDDDIRYFKSVATKEVKEENRK ; wanted: its NanoDSF thermal unfolding temperature
Result: 76.4

Q: # input binder: variant deamidase propeptide Y94P of Chryseobacterium sp-62563 (SEQ ID NO: 2) (other) NQDPNLVAKESNETAMKDFGKTVPVGIEKEDGKFKISFMVTAQPYEIKDSKENAAYISMIKTAVENETPIHVFLKANTNEIAKVDKATDDDIRPFKSVFTKEVKEENRK ; wanted: its NanoDSF thermal unfolding temperature
Result: 75.2

Q: # input binder: variant deamidase propeptide V23S of Chryseobacterium sp-62563 (SEQ ID NO: 2) (other) NQDPNLVAKESNETAMKDFGKTSPVGIEKEDGKFKISFMVTAQPYEIKDSKENAAYISMIKTAVENETPIHVFLKANTNEIAKVDKATDDDIRYFKSVFTKEVKEENRK ; wanted: its NanoDSF thermal unfolding temperature
Result: 69.8

Q: # input binder: variant deamidase propeptide Y45T of Chryseobacterium sp-62563 (SEQ ID NO: 2) (other) NQDPNLVAKESNETAMKDFGKTVPVGIEKEDGKFKISFMVTAQPTEIKDSKENAAYISMIKTAVENETPIHVFLKANTNEIAKVDKATDDDIRYFKSVFTKEVKEENRK ; wanted: its NanoDSF thermal unfolding temperature
Result: 73.7

Where do these numbers come from? They come from patent EP4242303A1.
